- Assayed Target: hClpP (Homo sapiens, UniProt Q16740)
- Sequence (Q16740 57-277): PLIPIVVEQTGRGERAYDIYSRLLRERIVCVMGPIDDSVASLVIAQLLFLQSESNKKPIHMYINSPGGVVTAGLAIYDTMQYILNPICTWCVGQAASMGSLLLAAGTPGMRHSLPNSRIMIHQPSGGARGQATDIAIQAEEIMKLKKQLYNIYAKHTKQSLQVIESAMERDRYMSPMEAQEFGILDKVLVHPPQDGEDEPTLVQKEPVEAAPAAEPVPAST
- Protocol: activating ClpP hydrolysis of FITC-casein (fluorescence kinetic detection)
- Condition Context: hClpP 1 μM, FITC-Casein 4 μM, 37° C.
EC50: recorded values
Observable: EC50

INSERT INTO results (record_smiles, observable, value) VALUES
  ('O=c1c2c(c3cccnc3n1Cc1ccc(Cl)cc1)CCN(Cc1cccc(Cl)c1)C2', 'EC50', '< 1 µM'),
  ('O=c1c2c(c3cccnc3n1Cc1ccccc1)CCN(CC1CCCCC1)C2', 'EC50', '10 to 100 µM'),
  ('CCc1ccc(Cn2c(=O)c3c(n4ccnc24)CCN(Cc2cccc(Cl)c2)C3)cc1', 'EC50', '< 1 µM'),
  ('Cc1cccc(Cn2c(=O)c3c(c4cccnc42)CCN(Cc2ccccc2)C3)c1', 'EC50', '< 1 µM'),
  ('O=c1c2c(n3ncnc3n1Cc1ccc(Cl)cc1)CCN(Cc1cccc(F)c1)C2', 'EC50', '1 to 10 µM'),
  ('Cn1cncc1Cn1c(=O)c2c(c3cccnc31)CCN(Cc1ccccc1)C2', 'EC50', '10 to 100 µM'),
  ('Cc1ccccc1Cn1c(=O)c2c(c3cccnc31)CCN(Cc1ccccc1)C2', 'EC50', '1 to 10 µM'),
  ('N#Cc1cccc(CN2CCc3c(c(=O)n(Cc4ccc(C(F)(F)F)cc4)c4nccn34)C2)c1', 'EC50', '< 1 µM');
